Value source: ChEMBL document CHEMBL3868630

Assay: Growth inhibition of human NCI-H522 cells after 48 hrs by SRB assay
Type: functional
Details: NCI-H522, 48 h
// returns False unless GI50 is strictly below 700 nM, in which case True

MOLECULE SMILES | CLASSIFICATION
[Br-].c1ccc2cc(Cn3c[n+](Cc4ccc5ccccc5c4)c4ccccc43)ccc2c1 | False
CCCc1n(Cc2ccc3ccccc3c2)c2ccccc2[n+]1Cc1ccc2ccccc2c1.[Br-] | True
[Cl-].c1ccc2nc(Cn3c[n+](Cc4ccc5ccccc5n4)c4ccccc43)ccc2c1 | False
OCCCc1n(Cc2ccc3ccccc3c2)c2ccccc2[n+]1Cc1ccc2ccccc2c1.[Br-] | False
Cc1n(Cc2ccc3ccccc3c2)c2ccccc2[n+]1Cc1ccc2ccccc2c1.[Br-] | True
COCCOCCOCc1n(Cc2ccc3ccccc3n2)c2ccccc2[n+]1Cc1ccc2ccccc2c1.[Br-] | True
Cc1cc2c(cc1C)[n+](Cc1ccc3ccccc3c1)cn2Cc1ccc2ccccc2c1.[Br-] | False
CCCCc1n(Cc2ccc3ccccc3c2)c2ccccc2[n+]1Cc1ccc2ccccc2c1.[Br-] | True

* * *

Below is a list of entries, each paired with its recorded growth at 10 µM value.
Assay: Cytotoxicity against human NCI-H23 cells assessed as cell growth at 10 uM after 48 hrs by SRB assay relative to control
Format: functional
Conditions: NCI-H23, 48 h, read-out: Activity

MOLECULE SMILES | growth at 10 µM
[Cl-].c1ccc2nc(Cn3c[n+](Cc4ccc5ccccc5n4)c4ccccc43)ccc2c1 | 32%
CCCCc1n(Cc2ccc3ccccc3c2)c2ccccc2[n+]1Cc1ccc2ccccc2c1.[Br-] | -83.9%
COCCOCCOCc1n(Cc2ccc3ccccc3n2)c2ccccc2[n+]1Cc1ccc2ccccc2n1.[Cl-] | 12.8%
CCCCCCCc1n(Cc2ccc3ccccc3c2)c2ccccc2[n+]1Cc1ccc2ccccc2c1.[Br-] | -76.9%
COCCOCCOCc1n(Cc2ccc3ccccc3n2)c2ccccc2[n+]1Cc1ccc2ccccc2c1.[Br-] | 1.03%
COC(=O)c1ccc2c(c1)n(Cc1ccc3ccccc3c1)c[n+]2Cc1ccc2ccccc2c1.[Br-] | 34.6%
OCCCc1n(Cc2ccc3ccccc3n2)c2ccccc2[n+]1Cc1ccc2ccccc2n1.[Cl-] | 75%
Cc1n(Cc2ccc3ccccc3n2)c2ccccc2[n+]1Cc1ccc2ccccc2n1.[Cl-] | 75.8%
COC(=O)CCc1n(Cc2ccc3ccccc3c2)c2ccccc2[n+]1Cc1ccc2ccccc2c1.[Br-] | -7.39%

* * *

Test: Growth inhibition of human NCI-H322M cells after 48 hrs by SRB assay
Assay type: functional
Conditions: read-out: LC50 (the source's name)

MOLECULE SMILES | CC50 (µM)
[Cl-].c1ccc2nc(Cn3c[n+](Cc4ccc5ccccc5n4)c4ccccc43)ccc2c1 | 43.5
OCCCc1n(Cc2ccc3ccccc3c2)c2ccccc2[n+]1Cc1ccc2ccccc2c1.[Br-] | 31.7
Cc1cc2c(cc1C)[n+](Cc1ccc3ccccc3n1)cn2Cc1ccc2ccccc2n1.[Cl-] | 30.5
Cc1n(Cc2ccc3ccccc3c2)c2ccccc2[n+]1Cc1ccc2ccccc2c1.[Br-] | 5.78
COCCOCCOCc1n(Cc2ccc3ccccc3n2)c2ccccc2[n+]1Cc1ccc2ccccc2c1.[Br-] | 28.6

* * *

Below is a list of entries, each paired with its recorded growth at 10 µM value.
Experiment: Cytotoxicity against human NCI-H23 cells assessed as cell growth at 10 uM after 48 hrs by SRB assay relative to control
Assay type: functional
Conditions: NCI-H23, 48 h, read-out: Activity

MOLECULE SMILES | growth at 10 µM / %
S=c1n(Cc2ccc3ccccc3c2)c2ccccc2n1Cc1ccc2ccccc2c1 | 93.1
O=c1n(Cc2ccc3ccccc3c2)c2ccccc2n1Cc1ccc2ccccc2c1 | 77.7
Cc1cc2c(cc1C)[n+](Cc1ccc3ccccc3n1)cn2Cc1ccc2ccccc2n1.[Cl-] | 1.58
COCCc1n(Cc2ccc3ccccc3c2)c2ccccc2[n+]1Cc1ccc2ccccc2c1.[Br-] | -24.3
[Br-].c1ccc2cc(Cn3c[n+](Cc4ccc5ccccc5c4)c4ccccc43)ccc2c1 | -0.74
Cc1cc2c(cc1C)[n+](Cc1ccc3ccccc3c1)cn2Cc1ccc2ccccc2c1.[Br-] | -71.8
OCCCc1n(Cc2ccc3ccccc3c2)c2ccccc2[n+]1Cc1ccc2ccccc2c1.[Br-] | 19

* * *

Assay: Growth inhibition of human HOP62 cells after 48 hrs by SRB assay
Assay type: functional
Settings: HOP-62, 48 h, read-out: LC50 (the source's name)
Below is a list of entries, each paired with its recorded CC50 value.
MEASURED PARAMETER: CC50

MOLECULE SMILES | RESULT
[Cl-].c1ccc2nc(Cn3c[n+](Cc4ccc5ccccc5n4)c4ccccc43)ccc2c1 | 41 µM
Cc1cc2c(cc1C)[n+](Cc1ccc3ccccc3n1)cn2Cc1ccc2ccccc2n1.[Cl-] | 7.72 µM
COCCOCCOCc1n(Cc2ccc3ccccc3n2)c2ccccc2[n+]1Cc1ccc2ccccc2c1.[Br-] | 9.53 µM
OCCCc1n(Cc2ccc3ccccc3c2)c2ccccc2[n+]1Cc1ccc2ccccc2c1.[Br-] | 82.7 µM

* * *

Assay: Toxicity in C57BL/6 mouse assessed as mouse survival rate at 20 mg/kg, ip measured after 16 days
Type: organism-based
Settings: in vivo

MOLECULE SMILES | survival at 384 h [%]
COCCOCCOCc1n(Cc2ccc3ccccc3n2)c2ccccc2[n+]1Cc1ccc2ccccc2c1.[Br-] | 33

* * *

Below is a list of entries, each paired with its recorded growth at 10 µM value.
Assay: Cytotoxicity against human NCI-H522 cells assessed as cell growth at 10 uM after 48 hrs by SRB assay relative to control
Assay type: functional
Settings: NCI-H522, 48 h, read-out: Activity

MOLECULE SMILES | growth at 10 µM [%]
COC(=O)c1ccc2c(c1)n(Cc1ccc3ccccc3c1)c[n+]2Cc1ccc2ccccc2c1.[Br-] | 26.3
O=c1n(Cc2ccc3ccccc3c2)c2ccccc2n1Cc1ccc2ccccc2c1 | 73.4
COCCc1n(Cc2ccc3ccccc3c2)c2ccccc2[n+]1Cc1ccc2ccccc2c1.[Br-] | -54.4
COCCOCCOCc1n(Cc2ccc3ccccc3c2)c2ccccc2[n+]1Cc1ccc2ccccc2c1.[Br-] | -16.6
COCCOCCOCc1n(Cc2ccc3ccccc3n2)c2ccccc2[n+]1Cc1ccc2ccccc2n1.[Cl-] | -1.7
CCCCCCCc1n(Cc2ccc3ccccc3c2)c2ccccc2[n+]1Cc1ccc2ccccc2c1.[Br-] | -81.1
CCCc1n(Cc2ccc3ccccc3c2)c2ccccc2[n+]1Cc1ccc2ccccc2c1.[Br-] | -60.1
[Br-].c1ccc2cc(Cn3c[n+](Cc4ccc5ccccc5c4)c4ccccc43)ccc2c1 | -28.8
Cc1n(Cc2ccc3ccccc3n2)c2ccccc2[n+]1Cc1ccc2ccccc2n1.[Cl-] | 56.6
COCCOCCOCc1n(Cc2ccc3ccccc3n2)c2ccccc2[n+]1Cc1ccc2ccccc2c1.[Br-] | 0.79
CCCCc1n(Cc2ccc3ccccc3c2)c2ccccc2[n+]1Cc1ccc2ccccc2c1.[Br-] | -77.2
COC(=O)CCc1n(Cc2ccc3ccccc3c2)c2ccccc2[n+]1Cc1ccc2ccccc2c1.[Br-] | -29.4
CCc1n(Cc2ccc3ccccc3c2)c2ccccc2[n+]1Cc1ccc2ccccc2c1.[Br-] | 12.1
OCCCc1n(Cc2ccc3ccccc3n2)c2ccccc2[n+]1Cc1ccc2ccccc2n1.[Cl-] | 60
S=c1n(Cc2ccc3ccccc3c2)c2ccccc2n1Cc1ccc2ccccc2c1 | 88.2
COC(=O)c1cc2c(cc1C(=O)OC)[n+](Cc1ccc3ccccc3c1)cn2Cc1ccc2ccccc2c1.[Br-] | 77.3

* * *

Below is a list of entries, each paired with its recorded pIC50 value.
Test: Cytotoxicity against human A549 cells assessed as decrease in cell viability after 72 hrs by MTT assay
Assay type: functional, cell-based
Conditions: A549, 72 h
pIC50: −log10 of the molar value.

MOLECULE SMILES | pIC50
Cc1n(Cc2ccc3ccccc3c2)c2ccccc2[n+]1Cc1ccc2ccccc2c1.[Br-] | 5.40
[Br-].c1ccc2cc(Cn3c[n+](Cc4ccc5ccccc5c4)c4ccccc43)ccc2c1 | 5.30
COc1ccc2c(c1)n(Cc1ccc3ccccc3c1)c[n+]2Cc1ccc2ccccc2c1.[Br-] | 5.22
Cc1n(Cc2ccc3ccccc3n2)c2ccccc2[n+]1Cc1ccc2ccccc2n1.[Cl-] | 5.05
Cl.O=C(O)c1ccc2c(c1)n(Cc1ccc3ccccc3c1)c[n+]2Cc1ccc2ccccc2c1.[Br-] | 4.92

* * *

Experiment: Cytotoxicity against human HCC827 cells assessed as decrease in cell viability after 72 hrs by MTT assay
Format: functional, cell-based
Conditions: HCC827, 72 h
MEASURED PARAMETER: IC50 (µM)

MOLECULE SMILES | MEASURED PARAMETER | SCALE UNIT | QUALIFIER OPERATOR | QUANTITATIVE READOUT
COC(=O)c1ccc2c(c1)n(Cc1ccc3ccccc3c1)c[n+]2Cc1ccc2ccccc2c1.[Br-] | IC50 | µM | = | 12
OCCCc1n(Cc2ccc3ccccc3n2)c2ccccc2[n+]1Cc1ccc2ccccc2n1.[Cl-] | IC50 | µM | = | 17
Cc1n(Cc2ccc3ccccc3n2)c2ccccc2[n+]1Cc1ccc2ccccc2n1.[Cl-] | IC50 | µM | = | 7
COCCOCCOCc1n(Cc2ccc3ccccc3c2)c2ccccc2[n+]1Cc1ccc2ccccc2c1.[Br-] | IC50 | µM | = | 5
COc1ccc2c(c1)n(Cc1ccc3ccccc3c1)c[n+]2Cc1ccc2ccccc2c1.[Br-] | IC50 | µM | = | 4
COCCOCCOCc1n(Cc2ccc3ccccc3n2)c2ccccc2[n+]1Cc1ccc2ccccc2n1.[Cl-] | IC50 | µM | = | 4
COC(=O)CCc1n(Cc2ccc3ccccc3c2)c2ccccc2[n+]1Cc1ccc2ccccc2c1.[Br-] | IC50 | µM | = | 4
OCCCc1n(Cc2ccc3ccccc3c2)c2ccccc2[n+]1Cc1ccc2ccccc2c1.[Br-] | IC50 | µM | = | 6
CCCc1n(Cc2ccc3ccccc3c2)c2ccccc2[n+]1Cc1ccc2ccccc2c1.[Br-] | IC50 | µM | < | 1
Cl.O=C(O)c1ccc2c(c1)n(Cc1ccc3ccccc3c1)c[n+]2Cc1ccc2ccccc2c1.[Br-] | IC50 | µM | > | 30
Cc1n(Cc2ccc3ccccc3c2)c2ccccc2[n+]1Cc1ccc2ccccc2c1.[Br-] | IC50 | µM | = | 4
